These entries and their values trace back to PubChem BioAssay (NCI).

# Protocol Text: NCI Yeast Anticancer Drug Screen. Data for the mec2-1 strain (AID 157)
# Protocol Conditions: S. cerevisiae mec2-1 strain, at 50.0 µM, hits give high values
Compounds without any hit were thinned out: in the full panel of roughly 79,000, 15% have a hit.
Consider the following molecules and their measured growth inhibition readings.
API: value field is a number in %; no unit string.

INSERT INTO measurements (molecule, reading) VALUES
  ('O=C(O)CSC(CC(=O)O)C(=O)O (centres undefined)', -9.4),
  ('CCCCCC(=O)c1ccc2[nH]c3c(C)cc([N+](=O)[O-])c(C)c3c2c1', -35.6),
  ('c1ccc2[nH]c3[nH]c4[nH]c5ccccc5[nH]c4[nH]c3[nH]c2c1', -9.2);

Please supply the value of reported growth inhibition for the item `CCN(CC)c1cc2c(cc1Br)-c1ccccc1C2=O`
-2.9

Please supply the value of reported growth inhibition for the item CN(C(=O)C1C2c3ccccc3C(c3ccccc32)C1C(=O)N(C)c1ccccc1)c1ccccc1 (centres undefined)
1.3

Please supply the value of reported growth inhibition for the item `N#CCCS(=O)(=O)O`
21.9

Please supply the value of reported growth inhibition for the item `CC(C)(C)OC(=O)NN(CC(=O)OCc1ccccc1)N=O`
-2.15

Please supply the value of reported growth inhibition for the item CC(C)C1OC2(CCCC2)OCC1(C)C (centres undefined)
-19.4

Please supply the value of reported growth inhibition for the item CCOC(=O)C(C)NCc1ccccc1 (centres undefined)
0.1

Please supply the value of reported growth inhibition for the item `CCCC(CC)(CC)CO`
-6.9

Please supply the value of reported growth inhibition for the item `S=c1nc[nH]c2c1CN(Cc1ccccc1)CC2`
-2.25

Please supply the value of reported growth inhibition for the item `CCC(C)(C1CCC(=O)CC1)C1CCC(=O)CC1`
-5.75

Please supply the value of reported growth inhibition for the item `C/C=C/[C@@H]1[C@H]2C(=O)[C@]3(Cl)[C@@H](/C=C/C)[C@@H]3C(=O)[C@@]12Cl`
6.1

Please supply the value of reported growth inhibition for the item `CCC(=O)NN1C(=O)c2ccccc2C1=O`
-15.4

Please supply the value of reported growth inhibition for the item `COC(=O)N/N=C(\C(=O)Nc1cccc([N+](=O)[O-])c1)c1nc2ccc([N+](=O)[O-])cc2[nH]c1=O`
-7.75

Please supply the value of reported growth inhibition for the item `Cc1cc[n+](Cc2ccccc2Cl)c(C)c1`
2.25

Please supply the value of reported growth inhibition for the item O=C(O)C(c1ccccc1)C1(O)CC2CCC1C2 (centres undefined)
-45.5

Please supply the value of reported growth inhibition for the item `CC(=O)[O][Ga]([Cl])[O]C(C)=O`
27.2

Please supply the value of reported growth inhibition for the item `CN(C)Cc1cc(N=Nc2c(Cl)cccc2Cl)ccc1O`
19.8

Please supply the value of reported growth inhibition for the item CSc1nc2c(c(=O)n1C)N=C(c1ccc([N+](=O)[O-])cc1)CC(c1ccccc1)N2 (centres undefined)
3.1

Please supply the value of reported growth inhibition for the item `O=C(/C=C\c1ccccc1)Nc1c(Cl)cc(Cl)cc1Cl`
10.5
